Just for reference, the supplement of paper PMC12667976 is where these values come from.

Recorded AIRE transcriptional activation functional score by entry
B1: library; numbered along this chain (parent)
chain: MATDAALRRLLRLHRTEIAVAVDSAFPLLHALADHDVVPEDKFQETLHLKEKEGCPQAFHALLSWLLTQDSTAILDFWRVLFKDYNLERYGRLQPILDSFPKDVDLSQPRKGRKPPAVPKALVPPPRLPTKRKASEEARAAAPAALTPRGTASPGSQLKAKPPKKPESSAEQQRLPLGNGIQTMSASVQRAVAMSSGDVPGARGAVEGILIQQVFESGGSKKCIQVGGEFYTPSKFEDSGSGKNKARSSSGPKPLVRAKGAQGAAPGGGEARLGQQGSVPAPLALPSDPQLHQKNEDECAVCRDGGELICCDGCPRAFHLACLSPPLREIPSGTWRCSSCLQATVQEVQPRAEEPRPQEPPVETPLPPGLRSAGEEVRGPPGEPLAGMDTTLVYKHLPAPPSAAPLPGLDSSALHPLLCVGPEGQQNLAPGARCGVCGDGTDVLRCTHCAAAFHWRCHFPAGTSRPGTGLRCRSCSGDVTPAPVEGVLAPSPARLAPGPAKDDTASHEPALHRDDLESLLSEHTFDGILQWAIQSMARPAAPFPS

Variants of: B1
Experiment Notes: AIRE transcriptional activation functional score (insulin promoter-GFP; nonsense median 0, synonymous median 1) (normalised score); higher = higher AIRE activity (more reporter activation)
Condition Context: with insulin promoter-GFP reporter in HEK293

Kindly note the recorded AIRE transcriptional activation functional score for R174T , which is 0.614
